# Target of assay: 5HT2B receptors (Homo sapiens)
# Construct: expressed in transfected cells; host or cells: CHO-K1 cells
# Sequence (P41595 whole entry): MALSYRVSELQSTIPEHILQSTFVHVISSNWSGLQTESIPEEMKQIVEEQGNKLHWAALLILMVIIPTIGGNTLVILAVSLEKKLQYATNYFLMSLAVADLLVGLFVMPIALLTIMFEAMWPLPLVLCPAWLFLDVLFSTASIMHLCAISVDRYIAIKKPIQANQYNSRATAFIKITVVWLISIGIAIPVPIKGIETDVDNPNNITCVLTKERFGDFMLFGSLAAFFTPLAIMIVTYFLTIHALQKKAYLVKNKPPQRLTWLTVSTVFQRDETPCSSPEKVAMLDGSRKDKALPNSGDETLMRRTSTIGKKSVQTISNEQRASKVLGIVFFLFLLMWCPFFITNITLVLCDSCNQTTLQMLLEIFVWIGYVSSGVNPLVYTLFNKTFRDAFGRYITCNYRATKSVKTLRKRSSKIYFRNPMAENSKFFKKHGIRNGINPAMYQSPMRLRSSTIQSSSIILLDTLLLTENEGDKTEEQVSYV
# Procedure text: Human 5-HT2B functional assay in CHO-K1 cells (calcium flux, FLIPR)
# Type: cell-based
# Stated conditions: CHO-K1, read-out: Emax (%), 5-HT2B Agonist Activity
Give measured Emax for each item. Keep answers brief.
The reply should be a number in %, with the unit left off.

Using the record for CN1CCC2CNCCN2c2ccc(Cl)cc21 (stereo not drawn) , report its Emax.
20

Request: CN1CCN2c3ccccc3OCC[C@@H]2C1
50

Would you kindly repeat that for Cc1ccc2c(c1)N1CCNC[C@@H]1CCO2 ?
60

Same question, O=C1NCC2CNCCN2c2ccccc21 (stereo not drawn) this time
80

Do the same for [2H]c1cccc2c1OCC[C@H]1CNCCN21 please
35

Also Fc1cccc2c1N1CCNC[C@@H]1CCO2 , if possible.
30

What about Clc1ccc2c(c1)OCC[C@@H]1CNCCN21 ?
90

Would you kindly repeat that for Cc1ccc2c(c1)N1CCNC[C@H]1CCO2 ?
60

And for O=C1CC2CNCCN2c2cc(F)ccc2N1 (stereo not drawn) ?
80
